The measurements presented in this section are drawn from PubChem BioAssay (NCI).

Tested on: NCI-H226 lung
experiment summary: NCI-60 one-dose screen, 48 h
applied conditions: 10 µM unless noted
About 83,000 compounds went through this panel and 20% of them were active in at least one assay; those are over-represented in the sample as a whole. The source made the active and inactive calls. Rule for the calls: active = growth percent below 10; inactive = the rest.
Result category, one only: t for active, f for inactive

Completed entries (count: 3):
| compound | assigned class |
| --- | --- |
| OCCNC1CCCCC1 | f |
| O=C/C=C/c1ccco1 | f |
| CCN(CC)CCn1c(=O)n(C)c2ccccc21 | f |

query: Record lookup: outcome of this test for `CN(C)c1ccc(C=C2C(=O)NC(=O)NC2=O)cc1` ?
result: f

query: Record lookup: outcome of this test for `N[C@@H](CCC(=O)CCl)C(=O)O` ?
result: f

query: Record lookup: outcome of this test for `O=C(O)c1cc([N+](=O)[O-])cc([N+](=O)[O-])c1` ?
result: f

query: Record lookup: outcome of this test for `C[C@]12CCc3sc(Nc4ccc(F)cc4F)nc3C1=CC[C@@H]1[C@@H]2CC[C@]2(C)C(=O)CC[C@@H]12` ?
result: f

query: Record lookup: outcome of this test for `Oc1ccccc1C=NCCN=Cc1ccccc1O.[Fe]` ?
result: f

query: Record lookup: outcome of this test for `O=[N+]([O-])c1c(Cl)cc(Cl)c([N+](=O)[O-])c1Cl` ?
result: f

query: Record lookup: outcome of this test for COc1ccc2c(c1)C1(C)CCN(C)CC(C1)C2O (configuration not stated) ?
result: f

query: Record lookup: outcome of this test for `C[C@]12CC[C@@H](OC(=O)N(CCCl)N=O)C[C@@H]1CC[C@@H]1[C@@H]2CC[C@]2(C)C(=O)CC[C@@H]12` ?
result: f

query: Record lookup: outcome of this test for CC[PH+](CC)CC.O=COC1OC([S-])C(OC=O)C(OC=O)C1OC=O.[Au+] (configuration not stated) ?
result: t

query: Record lookup: outcome of this test for `C/C=C(/C)C(=O)O[C@H]1CC[C@@]2(C)[C@@H]3CC[C@H]4[C@]5(O)C[C@H](O)[C@@]6(O)[C@@H](CN7C[C@@H](C)CC[C@H]7[C@@]6(C)O)[C@]5(O)C[C@@]42O[C@@]13O` ?
result: f

query: Record lookup: outcome of this test for `CCOP(=O)(OCC)C(=O)N(CC)CC` ?
result: f

query: Record lookup: outcome of this test for `CC[C@H](C)[C@H](NC(=O)C12CC(NC)(C1)C2)C(=O)N(C)[C@H](C[C@@H](OC(C)=O)c1nc(C(=O)N[C@@H](Cc2ccccc2)C[C@H](C)C(=O)OC)cs1)C(C)C` ?
result: f

query: Record lookup: outcome of this test for `COc1cc(-c2ccc(N)c(OC)c2)ccc1N` ?
result: f

query: Record lookup: outcome of this test for `CNC(=O)O/N=C(\SC)C(=O)N(C)C` ?
result: f
